- assay.comment: i.v. versus oral siponimod study in healthy subjects (absolute bioavailability): pharmacokinetics
- Format: in vivo, human
- test.parameters: human, in vivo, 0.25 mg; oral versus i.v., healthy subjects; read-out: oral bioavailability F %
quantity: bioavailability (%)
Number in %, nothing else.

For CCc1cc(/C(C)=N/OCc2ccc(C3CCCCC3)c(C(F)(F)F)c2)ccc1CN1CC(C(=O)O)C1 the compound record lists bioavailability as 84
